- targetUnderTest: T1, soluble extracellular domain of human α-Klotho (aa 1-980) fused to a 6xHis tag (human, UniProt Q9UEF7 34-980)
- T1 construct: Secreted from HEK293 EBNA cells; also called sKLA; soluble α-Klotho
- T1 sequence: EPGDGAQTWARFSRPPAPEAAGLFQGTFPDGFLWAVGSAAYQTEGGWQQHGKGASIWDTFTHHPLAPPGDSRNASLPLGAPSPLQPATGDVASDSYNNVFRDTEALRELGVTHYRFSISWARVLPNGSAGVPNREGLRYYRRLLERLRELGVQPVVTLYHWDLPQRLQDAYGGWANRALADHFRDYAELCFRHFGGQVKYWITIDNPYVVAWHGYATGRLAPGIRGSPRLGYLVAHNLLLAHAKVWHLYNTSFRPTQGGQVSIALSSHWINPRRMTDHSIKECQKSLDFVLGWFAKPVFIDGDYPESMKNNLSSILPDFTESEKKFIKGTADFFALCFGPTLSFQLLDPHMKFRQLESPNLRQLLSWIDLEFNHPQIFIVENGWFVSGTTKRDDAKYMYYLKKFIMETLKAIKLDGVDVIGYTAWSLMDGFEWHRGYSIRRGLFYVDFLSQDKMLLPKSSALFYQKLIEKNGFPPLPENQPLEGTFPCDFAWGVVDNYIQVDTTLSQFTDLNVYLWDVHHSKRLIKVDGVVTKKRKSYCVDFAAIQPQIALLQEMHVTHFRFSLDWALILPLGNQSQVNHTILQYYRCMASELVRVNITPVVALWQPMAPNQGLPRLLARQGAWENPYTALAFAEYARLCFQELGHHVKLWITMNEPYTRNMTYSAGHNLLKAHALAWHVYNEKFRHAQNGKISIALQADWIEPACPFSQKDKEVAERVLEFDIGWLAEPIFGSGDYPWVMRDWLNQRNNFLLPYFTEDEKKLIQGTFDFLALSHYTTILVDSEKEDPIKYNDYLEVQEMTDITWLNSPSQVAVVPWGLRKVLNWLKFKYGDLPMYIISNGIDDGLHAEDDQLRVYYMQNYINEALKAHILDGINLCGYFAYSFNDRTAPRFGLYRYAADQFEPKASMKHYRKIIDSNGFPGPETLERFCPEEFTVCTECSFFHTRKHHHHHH
- procedureText: BLI; FLAG-tagged FGF23 captured by anti-FLAG M2 on anti-mouse Fc sensors, sKLA 6.25-200 nM as analyte, 1:1 fit
resultType: koff (s⁻¹)
Return type: number; implicit unit s⁻¹.

Study these solved cases before continuing.
If you can, please state the reported koff value of FLAG-tagged human FGF23 C206S/C244S mutant expressed in Expi293F cells (ligand, O-linked glycosylation (sites not given), also called FGF23-CS; mFGF23-CS) DYKDDDDKYPNASPLLGSSWGGLIHLYTATARNSYHLQIHKNGHVDGAPHQTIYSALMIRSEDAGFVVITGVMSRRYLCMDFRGNIFGSHYFDPENCRFQHQTLENGYDVYHSPQYHFLVSLGAAKAAFLPGMNPPPYSQFLSRRNEIPLIHFNTPIPRQHTQSAEDDSERDPLNVLKPRARMTPAPASSSQELPSAEDNSPMASDPLGVVRGGRVNTHAGGTGPEGSRPFAKFI .
0.0042

Also FLAG-tagged human FGF23 C206S/C244S/D188A mutant expressed in Expi293F cells (ligand, also called FGF23-CS D188A) DYKDDDDKYPNASPLLGSSWGGLIHLYTATARNSYHLQIHKNGHVDGAPHQTIYSALMIRSEDAGFVVITGVMSRRYLCMDFRGNIFGSHYFDPENCRFQHQTLENGYDVYHSPQYHFLVSLGAAKAAFLPGMNPPPYSQFLSRRNEIPLIHFNTPIPRQHTQSAEDDSERAPLNVLKPRARMTPAPASSSQELPSAEDNSPMASDPLGVVRGGRVNTHAGGTGPEGSRPFAKFI ?
0.0044

Also FLAG-tagged human FGF23 (aa 25-251) expressed in Expi293F cells (ligand, O-linked glycosylation (sites not given); Cys206-Cys244 disulfide bridge, also called FGF23-WT; mFGF23-WT) DYKDDDDKYPNASPLLGSSWGGLIHLYTATARNSYHLQIHKNGHVDGAPHQTIYSALMIRSEDAGFVVITGVMSRRYLCMDFRGNIFGSHYFDPENCRFQHQTLENGYDVYHSPQYHFLVSLGAAKAAFLPGMNPPPYSQFLSRRNEIPLIHFNTPIPRQHTQSAEDDSERDPLNVLKPRARMTPAPASCSQELPSAEDNSPMASDPLGVVRGGRVNTHAGGTGPEGCRPFAKFI ?
0.0034

More entries:
If you can, please state the reported koff value of FLAG-tagged human FGF23 D188A mutant expressed in Expi293F cells (ligand) DYKDDDDKYPNASPLLGSSWGGLIHLYTATARNSYHLQIHKNGHVDGAPHQTIYSALMIRSEDAGFVVITGVMSRRYLCMDFRGNIFGSHYFDPENCRFQHQTLENGYDVYHSPQYHFLVSLGAAKAAFLPGMNPPPYSQFLSRRNEIPLIHFNTPIPRQHTQSAEDDSERAPLNVLKPRARMTPAPASCSQELPSAEDNSPMASDPLGVVRGGRVNTHAGGTGPEGCRPFAKFI .
0.0036
